Below is a list of entries, each paired with its recorded protein stability index value.
B1: LARP4 (parent)
chain: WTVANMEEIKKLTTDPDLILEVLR

- Variants of: B1
- test.method.notes: protein stability index of a GFP-peptide fusion (GPS, HEK-293T) (PSI 1-6); higher = more stable;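 further: lentivirally expressed fusions sorted by FACS into six bins by GFP to DsRed ratio, PSI derived from sequencing read proportions per bin multiplied by bin number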
- condition.parameters: c terminus: a fixed tail appended
quantity.measured: protein stability index

variant.string	quantity.measured	value.observed
V3M	protein stability index	2.29
D15Y	protein stability index	1.38
D15F	protein stability index	1.7
V22D	protein stability index	3.77
P16V	protein stability index	1.2
A4N	protein stability index	2.59
I19Y	protein stability index	2.67
R24P	protein stability index	2.37
I9T	protein stability index	1.71
L23A	protein stability index	2.37
L12T	protein stability index	2.22
E7C	protein stability index	1.58
V3C	protein stability index	2.5
R24W	protein stability index	2.31
L20G	protein stability index	2.01
T2I	protein stability index	1.14
P16F	protein stability index	1.63
P16M	protein stability index	2.11
E21T	protein stability index	1.9
L12R	protein stability index	2.34
I19K	protein stability index	3.21
T13A	protein stability index	2.24
L12W	protein stability index	2.46
K10S	protein stability index	2.07
V3Y	protein stability index	1.96
L18F	protein stability index	1.92
